Assay: Singlet oxygen yield relative to Methylene Blue
Type: physicochemical
Details: in methanol, relative to MB
measurement.name: Singlet oxygen yield (relative to Methylene Blue)

INSERT INTO measurements (smi, readout_value) VALUES
  ('CCCN(CCC)c1ccc2nc3ccc(N(CCC)CCC)cc3[se+]c2c1', 1.1),
  ('CCCCCN(CCCCC)c1ccc2nc3ccc(N(CCCCC)CCCCC)cc3[se+]c2c1', 1.4),
  ('CCCCN(CCCC)c1ccc2nc3ccc(N(CCCC)CCCC)cc3[se+]c2c1', 0.9),
  ('CCCCCCN(CCCCCC)c1ccc2nc3ccc(N(CCCCCC)CCCCCC)cc3[se+]c2c1', 1.1),
  ('CCN(CC)c1ccc2nc3ccc(N(CC)CC)cc3[se+]c2c1', 1.5),
  ('CCCCN(CCCC)c1ccc2nc3ccc(N(CCC)CCC)cc3[se+]c2c1', 1.1);
